B1: Myocardin, residues 363 to 406; numbered along this chain, Q8IZQ8 (parent)
chain: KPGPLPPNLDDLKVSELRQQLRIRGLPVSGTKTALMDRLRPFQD

Variants of: B1
Test: abundance fitness (aPCA) (normalised: wild type 0, dead -1); higher = more abundant; growth selection in yeast, the domain comes from the species named
Conditions: Homo sapiens
Given measured abundance fitness, output True if it is greater than or equal to -0.4 and False if not.

Some entries whose results are on file:
P7H	True
D10H	True
P41F	True
P27C	True
P27L	False

Query :: Determine whether this variant has abundance fitness no lower than -0.4: K32V
Result :: True

Query :: Param item: L35R
Result :: False

Query :: Moving on to the next variant: R18P
Result :: False

Query :: // same read-out, input: D44A
Result :: True

Query :: Similarly, L9H ?
Result :: False

Query :: And what about the variant L12C ?
Result :: False

Query :: Let us now turn to R24T
Result :: False
